System: Staphylococcus aureus
Experiment: Antibacterial activity against Staphylococcus aureus ATCC 29213 after 24 hrs by macrobroth dilution method
Type: functional
Settings: ATCC 29213, 24 h
READOUT_NAME: MIC (µg/mL)
One number for each entry, in µg/mL.

CCCCCCCCCCCC(=O)NC[C@H]1O[C@@H](O[C@@H]2[C@@H](O)[C@H](N)C[C@H](N)[C@H]2O[C@H]2O[C@H](CN)[C@@H](O)[C@H](O)[C@H]2N)[C@H](O)[C@@H]1O[C@H]1O[C@@H](CN)[C@@H](O)[C@H](O)[C@H]1N	32

# evaluate next
# value of MIC, Staphylococcus aureus, item CCCCCCCCCCCCCCCCCCCC(=O)NC[C@H]1O[C@@H](O[C@@H]2[C@@H](O)[C@H](N)C[C@H](N)[C@H]2O[C@H]2O[C@H](CN)[C@@H](O)[C@H](O)[C@H]2N)[C@H](O)[C@@H]1O[C@H]1O[C@@H](CN)[C@@H](O)[C@H](O)[C@H]1N = 8

Where do these numbers come from? They come from ChEMBL document CHEMBL1140095.
